# Tested on: Aspergillus flavus
# assay info: Antifungal activity against Aspergillus flavus NCIM 524; further: test concentration or dose not given here
# Type: functional
recorded metric: inhibition zone (IZ) (mm)
Numbers only, in mm.

Worked set:
{"mol smiles": "CSc1ccc(OCc2nnc3sc(-c4ccccc4)nn23)cc1", "assayed system": "Aspergillus flavus", "recorded metric": "inhibition zone (IZ)", "recorded measurement": 16}
{"mol smiles": "CSc1ccc(OCc2nnc3n2N=C(c2ccc(Cl)cc2)CS3)cc1", "assayed system": "Aspergillus flavus", "recorded metric": "inhibition zone (IZ)", "recorded measurement": 16}
{"mol smiles": "CCSc1ccc(OCc2nnc3sc(-c4ccccc4)nn23)cc1", "assayed system": "Aspergillus flavus", "recorded metric": "inhibition zone (IZ)", "recorded measurement": 16}

Consider the additional molecule presented here.
## Input Given the entry "CSc1ccc(OCc2nnc3sc(Cc4ccccc4)nn23)cc1" , report its measured inhibition zone (IZ).
## Output 16

----------
# System: Klebsiella pneumoniae
# assay info: Antibacterial activity against Klebsiella pneumoniae; further: test concentration or dose not given here
# Format: functional
recorded metric: inhibition zone (IZ) (mm)
Give bare numbers, in mm.

Worked set:
{"mol smiles": "O=C(O)c1cn(C2CC2)c2cc(N3CCNCC3)c(F)cc2c1=O", "inhibition zone (IZ), mm": 23}
{"mol smiles": "CS(=O)(=O)c1ccc(OCc2nnc3n2N=C(c2ccc(Cl)cc2Cl)CS3)cc1", "inhibition zone (IZ), mm": 11}
{"mol smiles": "CSc1ccc(OCc2nnc3sc(-c4ccccc4)nn23)cc1", "inhibition zone (IZ), mm": 16}
{"mol smiles": "CS(=O)(=O)c1ccc(OCc2nnc3sc(-c4cccc(Cl)c4)nn23)cc1", "inhibition zone (IZ), mm": 11}

Below are some compounds; for each one, tell me its inhibition zone (IZ).
1. CSc1ccc(OCc2nnc3sc(-c4ccc(C)cc4)nn23)cc1
2. CCSc1ccc(OCc2nnc3n2N=C(c2ccc(O)c(C(N)=O)c2)CS3)cc1
3. CS(=O)(=O)c1ccc(OCc2nnc3sc(-c4cccc(Cl)c4Cl)nn23)cc1

## Output
1: 16; 2: 16; 3: 16

----------
# Test system: Talaromyces marneffei
# assay info: Antifungal activity against Penicillium marneffei; further: test concentration or dose not given here
# Type: functional
Please go through the items and note down their inhibition zone (IZ).
Numbers only, in mm.

{"mol smiles": "CSc1ccc(OCc2nnc3sc(-c4ccc(C)cc4)nn23)cc1", "assayed system": "Talaromyces marneffei", "recorded metric": "inhibition zone (IZ)", "measurement units": "mm", "recorded measurement": 16}
{"mol smiles": "CSc1ccc(OCc2nnc3sc(-c4cccc(Cl)c4Cl)nn23)cc1", "assayed system": "Talaromyces marneffei", "recorded metric": "inhibition zone (IZ)", "measurement units": "mm", "recorded measurement": 16}

Consider the additional compound presented here.
## Input Given the entry "CCSc1ccc(OCc2nnc3sc(-c4ccccc4)nn23)cc1" , report its measured inhibition zone (IZ).
## Output 16

----------
# Tested on: Klebsiella pneumoniae
# assay info: Antibacterial activity against Klebsiella pneumoniae; further: test concentration or dose not given here
# Format: functional
Please go through the items and note down their inhibition zone (IZ).
Answers are plain numbers, in mm.

{"mol smiles": "CS(=O)(=O)c1ccc(OCc2nnc3sc(-c4ccccc4)nn23)cc1", "recorded measurement": 11}
{"mol smiles": "CSc1ccc(OCc2nnc3n2N=C(c2ccc(Cl)cc2)CS3)cc1", "recorded measurement": 16}
{"mol smiles": "CCSc1ccc(OCc2nnc3sc(-c4ccccc4)nn23)cc1", "recorded measurement": 16}

Consider the additional molecule presented here.
## Input Given the entry "CSc1ccc(OCc2nnc3sc(-c4cccc(Cl)c4Cl)nn23)cc1" , report its measured inhibition zone (IZ).
## Output 16
